Compiled from multiple publications: pIC50 readings for Serine/threonine-protein kinase pim-1 (Homo sapiens, UniProt P11309).
pIC50: −log10 of the molar value.

compound=COC(=O)c1c[nH]c2c(=O)[nH]c3ccc(S(=O)(=O)NC4CCNCC4)cc3c12 result="5.00 to 6.00"
compound=FC(F)(F)c1cccc(-c2nnc3ccc(NC4CCC4)nn23)c1 result="> 6.00"
compound=CCCCOC(=O)c1c[nH]c2c(=O)[nH]c3ccc(S(=O)(=O)NC4CCNCC4)cc3c12 result="5.00 to 6.00"

Item: CCc1cc2nc(C(=O)Nc3cnccc3N3CCC[C@H](N)C3)c(N)cc2cn1 Test system: Serine/threonine-protein kinase pim-1 (Homo sapiens, UniProt P11309) Read-out: pIC50 Value: ?
≥ 7.00

Item: COc1cnc2c(C(=O)Nc3cnn(C)c3N3CCCC(N)CC3)c(N)sc2c1 (stereo not drawn) Test system: Serine/threonine-protein kinase pim-1 (Homo sapiens, UniProt P11309) Read-out: pIC50 Value: ?
≥ 8.00

Item: Nc1cc2ccc(C3CCOCC3)cc2nc1C(=O)Nc1cnccc1N1C[C@@H](N)C[C@@H](C(F)(F)F)C1 Test system: Serine/threonine-protein kinase pim-1 (Homo sapiens, UniProt P11309) Read-out: pIC50 Value: ?
≥ 7.00

----------
Compiled from multiple publications: IC50 readings for Serine/threonine-protein kinase pim-1 (Homo sapiens, UniProt P11309).
Categorized via IC50: bottom end (below 0.03 nM), midrange (0.03 nM to below 5 nM), top end (5 nM or more)

compound_structure=CC(C)[C@@H]1C[C@H](N)C[C@H](c2ccncc2NC(=O)c2ccc(F)c(-c3c(F)cc(OC4CCOCC4)cc3F)n2)C1 category_label="bottom end"
compound_structure=C[C@@H]1C[C@H](N)C[C@H](c2ccncc2NC(=O)c2ccc(F)c(-c3c(F)ccc(OC[C@H](O)CO)c3F)n2)C1 category_label=midrange
compound_structure=NCCCCNc1nc2c(Br)c(Br)c(Br)c(Br)c2[nH]1 category_label="top end"

Pick a category. Item: C[C@H]1CN(c2ccncc2NC(=O)c2ccc(F)c(-c3c(F)cc(S(C)(=O)=O)cc3F)n2)C[C@@H](N)[C@@H]1O
midrange

Pick a category. Item: N[C@@H]1CN(c2ccnc3ccc(-c4cccc(-c5c(F)cccc5F)n4)cc23)CC[C@H]1F
top end

Pick a category. Item: C[C@H]1C[C@@H](c2ccncc2NC(=O)c2ccc(F)c(-c3c(F)cc(COC4CCOCC4)cc3F)n2)C[C@@H](N)[C@@H]1O
midrange

Pick a category. Item: C[C@@H]1C[C@H](N)C[C@H](c2ccncc2NC(=O)c2ccc(F)c(-c3c(F)cc(OCC4CC4)cc3F)n2)C1
bottom end

Pick a category. Item: C[C@@H]1CN(c2cccc3ccc(-c4nnc5ccccn45)nc23)CCN1
top end

Pick a category. Item: CCOc1ccc(F)c(-c2nc(C(=O)Nc3cnccc3N3C[C@@H](N)[C@H](O)[C@@H](C)C3)ccc2F)c1F
bottom end

----------
Compiled from multiple publications: log10 of IC50 readings for Serine/threonine-protein kinase pim-1 (Homo sapiens).
Log10 applied to IC50; unit prior to transform: nM.

Solved entries (count: 4):
compound_structure=C[C@H]1CN(c2ccncc2NC(=O)c2ccc(F)c(-c3c(F)cc([S@+](C)[O-])cc3F)n2)C[C@@H](N)[C@@H]1O readout_kind="log10 of IC50" numeric_value=-1.52
compound_structure=CCC(=O)c1cc(F)c(-c2nc(C(=O)Nc3cnccc3[C@@H]3C[C@H](C)C[C@H](N)C3)ccc2F)c(F)c1 readout_kind="log10 of IC50" numeric_value=-0.85
compound_structure=C[C@@H]1C[C@H](N)C[C@H](c2ccncc2NC(=O)c2ccc(F)c(-c3c(F)cc(CCO)cc3F)n2)C1 readout_kind="log10 of IC50" numeric_value=-1.70
compound_structure=COc1ccc(Nc2nc3c(Br)c(Br)c(Br)c(Br)c3[nH]2)cc1OC readout_kind="log10 of IC50" numeric_value=2.46

Next item in the queue.
Item: C[C@@H]1C[C@H](N)CN(c2ccnc3ccc(-c4cccc(-c5nccs5)n4)cc23)C1 Test system: Serine/threonine-protein kinase pim-1 (Homo sapiens) Read-out: log10 of IC50 Value: ?
0.70

----------
pIC50: −log10 of the molar value.
Compiled from multiple publications: pIC50 readings for Serine/threonine-protein kinase pim-1 (Homo sapiens).

Solved entries (count: 3):
compound=CCOC(=O)c1c[nH]c2c(=O)[nH]c3ccc(S(=O)(=O)NCCCN(C)C)cc3c12 result="4.00 to 5.00"
compound=CCc1cc2nc(C(=O)Nc3cnccc3N3CCC[C@H](N)C3)c(N)cc2cc1F result="≥ 7.00"
compound="COC(=O)c1c[nH]c2c(=O)[nH]c3ccc(S(=O)(=O)NC4CCCNC4)cc3c12 (stereo not shown)" result="5.00 to 6.00"

Next item in the queue.
Item: Fc1ccc(-c2nnc3ccc(NC4CC4)nn23)cc1 Test system: Serine/threonine-protein kinase pim-1 (Homo sapiens) Read-out: pIC50 Value: ?
> 6.00
